Read-out: Monokine induced gamma interferon (MIG), CXCL9 (gene 4283)
Assay: BSK_CASM3C_MIG: BioMAP Diversity Plus: CASM3C Assay for Monokine induced gamma interferon (MIG) Biomarker Activity (AID 2283048);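 also: MIG protein level measured by ELISA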
Details: primary human coronary artery smooth muscle cells; actives raise or lower the signal
The source made the active and inactive calls. The calls were made as follows: active = hit-call score of the fitted dose curve at least 0.9, where 1 is the maximum; inactive = score below 0.9.
Observed Property: outcome

As a guide, the following entries are already answered.
CC(=O)OCCC(C)C; inactive
CC/C(=C\C(=N/O)C(N)=O)C(C)[N+](=O)[O-] (stereo not given); inactive
O=c1n(CC2CO2)c(=O)n(CC2CO2)c(=O)n1CC1CO1 (stereo not given); inactive
CC(C)=CCC/C(C)=C/CO; inactive

Please examine the following record next.
Data request: Dear colleague, I am looking for the recorded outcome of the following compound: CC(C)(O)c1coc(S(=O)(=O)NC(=O)Nc2c3c(cc4c2CCC4)CCC3)c1
Data returned: inactive

====

Read-out: Glutamate-cysteine ligase regulatory (GCLM), GCLM (gene 2730)
Assay: LTEA_HepaRG_GCLM: Life Technologies and Expression Analysis (LTEA) Assay for Glutamate-cysteine ligase regulatory (GCLM) using HepaRG (AID 2283500)
Conditions: mRNA level, 48 h; actives raise or lower the signal
Activity calls are given as the source filed them. How the source made its calls: active means hit-call score of the fitted dose curve at least 0.9, where 1 is the maximum; inactive means score below 0.9.
Assign a class; possible classes are active, inactive

CC(C)=CCCC(C)CCO (stereo not drawn); inactive
CC/C(=C\C(=N/O)C(N)=O)C(C)[N+](=O)[O-] (stereo not drawn); inactive
COc1ccc2sc(C(=O)Nc3nnn[nH]3)c(OC(C)C)c2c1; inactive
CC(C)(O)c1coc(S(=O)(=O)NC(=O)Nc2c3c(cc4c2CCC4)CCC3)c1; inactive
Cc1ccc(N)cc1O; inactive
O=c1n(CC2CO2)c(=O)n(CC2CO2)c(=O)n1CC1CO1 (stereo not drawn); inactive
CCCCCCCCCCCCCCCO; inactive
Clc1nc(Cl)c(Cl)c(Cl)c1Cl; inactive

Data request: Test call for this molecule, please: O=c1[nH]c2ccc(S(=O)CCN3CCC(Cc4ccc(F)cc4)CC3)cc2o1 (stereo not drawn)
Data returned: active

Data request: Cool, now CCCCCCCCO
Data returned: inactive

Data request: Query Cn1c(=O)c2c(ncn2C)n(C)c1=O next
Data returned: inactive

Data request: Now this one: CC(=O)c1ccc2c(c1)[C@H](NC(=O)c1ccc(F)cc1)[C@@H](O)C(C)(C)O2
Data returned: inactive

Data request: Please do the same for Cc1ccc(S(=O)(=O)O)cc1C as well.
Data returned: inactive

====

Read-out: sulfotransferase 2A1 (SULT2A1), SULT2A1 (gene 6822)
Experiment: LTEA_HepaRG_SULT2A1: Life Technologies and Expression Analysis (LTEA) Assay for sulfotransferase 2A1 (SULT2A1) using HepaRG (AID 2283531)
Settings: mRNA level, 48 h; actives raise or lower the signal
Active and inactive are the calls of the source. The calls were made as follows: active = hit-call score of the fitted dose curve at least 0.9, where 1 is the maximum; inactive = score below 0.9.
One label from this list, please: 1 (active), -1 (inactive)

Past entries and their recorded results:
NC(=O)NO; -1
CC(C)CC(C)(O)C#CC(C)(O)CC(C)C (stereo not drawn); -1
CCn1nc(Cc2ccccc2)cc1C1CCN(C[C@H]2C[C@H](N(C)[C@@H](C(=O)O)C(C)C)C[C@@H]2c2cccc(F)c2)CC1; -1
CC(C)CCCCCCCOC(=O)CCCCC(=O)OCCCCCCCC(C)C; -1
Cc1ccc(C)c(O)c1; -1
O=C(OC[C@H]1O[C@@H](OC(=O)c2cc(O)c(O)c(OC(=O)c3cc(O)c(O)c(O)c3)c2)[C@H](OC(=O)c2cc(O)c(O)c(OC(=O)c3cc(O)c(O)c(O)c3)c2)[C@@H](OC(=O)c2cc(O)c(O)c(OC(=O)c3cc(O)c(O)c(O)c3)c2)[C@@H]1OC(=O)c1cc(O)c(O)c(OC(=O)c2cc(O)c(O)c(O)c2)c1)c1cc(O)c(O)c(OC(=O)c2cc(O)c(O)c(O)c2)c1; 1
CN(C)c1ccc(Cc2ccc(N(C)C)cc2)cc1; -1

Data request: # fetch the recorded call for CCCCC(CC)COC(=O)c1ccc(C(=O)OCC(CC)CCCC)cc1 (stereo not drawn) here
Data returned: -1

====

Read-out: Cyclin Dependent Kinase Inhibitor 1A (CDKN1A), CDKN1A (gene 1026)
Assay: LTEA_HepaRG_CDKN1A: Life Technologies and Expression Analysis (LTEA) Assay for Cyclin Dependent Kinase Inhibitor 1A (CDKN1A) using HepaRG (AID 2283450)
Conditions: mRNA level, 48 h; actives raise or lower the signal
Activity calls are given as the source filed them. How the source made its calls: active means hit-call score of the fitted dose curve at least 0.9, where 1 is the maximum; inactive means score below 0.9.
// classify into active, inactive

Past entries and their recorded results:
CC[C@H]1OC(=O)[C@H](C)[C@@H](O[C@H]2C[C@@](C)(OC)[C@@H](O)[C@H](C)O2)[C@H](C)[C@@H](O[C@@H]2O[C@H](C)C[C@H](N(C)C)[C@H]2O)[C@](C)(O)C[C@@H](C)C(=O)[C@H](C)[C@@H](O)[C@]1(C)O; inactive
CC(C)=CCC/C(C)=C\CO; inactive
CCC(C)(C)C(=O)O[C@H]1C[C@@H](C)C=C2C=C[C@H](C)[C@H](CC[C@@H]3C[C@@H](O)CC(=O)O3)[C@H]21; inactive

Data request: What classification did CC[C@H](C)C(=O)O[C@H]1C[C@@H](C)C=C2C=C[C@H](C)[C@H](CC[C@@H]3C[C@@H](O)CC(=O)O3)[C@H]21 end up with in this test?
Data returned: inactive

Data request: Another: Cc1ccc(N)cc1O
Data returned: inactive

====

Target: Cellular tumor antigen p53 (Homo sapiens)
Assay: TOX21_p53_BLA_p4_ratio: Tox21 HCT-116 p53 Agonism Beta-lactamase Assay, Ratio, Phase 4 (AID 2283601)
Records with an inconclusive call do not appear. Active and inactive are the calls of the source. Rule for the calls: active = hit-call score of the fitted dose curve at least 0.9, where 1 is the maximum; inconclusive = response in the unintended direction; inactive = score below 0.9.
Thanks in advance; please answer with one of these: 1.0 = active, 0.0 = inactive

Solved entries:
CC(=O)c1ccc2c(c1)[C@H](NC(=O)c1ccc(F)cc1)[C@@H](O)C(C)(C)O2; 0.0
O=C(O)c1cc(N=Nc2ccc(S(=O)(=O)Nc3ccccn3)cc2)ccc1O; 0.0
CC(C)=CCC/C(C)=C\CO; 0.0
COc1cccc(-c2ccc(/C=C\CN3CCCCCC3)cc2Cl)c1; 1.0
Nc1cccc(N)c1; 0.0
COC(=O)CC(=O)OC; 0.0
COc1ccc2sc(C(=O)Nc3nnn[nH]3)c(OC(C)C)c2c1; 0.0
O=C(NS(=O)(=O)/C=C/c1ccccc1)c1ccc(F)cc1Cl; 1.0
CC(=O)OCCC(C)C; 0.0
CC(C)(O)c1coc(S(=O)(=O)NC(=O)Nc2c3c(cc4c2CCC4)CCC3)c1; 0.0

Data request: Which outcome was assigned to Fc1ccccc1[C@@H](F)COC1CCC(Nc2ncnc3[nH]ncc23)CC1 (some centres not stated) in this test?
Data returned: 0.0

Data request: Lookup CNS(=O)(=O)c1cc(C(=O)N2CCC(CCN3C4CCC3CC(n3c(C)nc5ccccc53)C4)(c3cccc(F)c3)CC2)c(Cl)cc1F (configuration not stated)
Data returned: 0.0

====

Biological target: Voltage-gated inwardly rectifying potassium channel KCNH2 (Homo sapiens) (UniProt Q12809)
Sequence (Q12809 whole entry, looked up): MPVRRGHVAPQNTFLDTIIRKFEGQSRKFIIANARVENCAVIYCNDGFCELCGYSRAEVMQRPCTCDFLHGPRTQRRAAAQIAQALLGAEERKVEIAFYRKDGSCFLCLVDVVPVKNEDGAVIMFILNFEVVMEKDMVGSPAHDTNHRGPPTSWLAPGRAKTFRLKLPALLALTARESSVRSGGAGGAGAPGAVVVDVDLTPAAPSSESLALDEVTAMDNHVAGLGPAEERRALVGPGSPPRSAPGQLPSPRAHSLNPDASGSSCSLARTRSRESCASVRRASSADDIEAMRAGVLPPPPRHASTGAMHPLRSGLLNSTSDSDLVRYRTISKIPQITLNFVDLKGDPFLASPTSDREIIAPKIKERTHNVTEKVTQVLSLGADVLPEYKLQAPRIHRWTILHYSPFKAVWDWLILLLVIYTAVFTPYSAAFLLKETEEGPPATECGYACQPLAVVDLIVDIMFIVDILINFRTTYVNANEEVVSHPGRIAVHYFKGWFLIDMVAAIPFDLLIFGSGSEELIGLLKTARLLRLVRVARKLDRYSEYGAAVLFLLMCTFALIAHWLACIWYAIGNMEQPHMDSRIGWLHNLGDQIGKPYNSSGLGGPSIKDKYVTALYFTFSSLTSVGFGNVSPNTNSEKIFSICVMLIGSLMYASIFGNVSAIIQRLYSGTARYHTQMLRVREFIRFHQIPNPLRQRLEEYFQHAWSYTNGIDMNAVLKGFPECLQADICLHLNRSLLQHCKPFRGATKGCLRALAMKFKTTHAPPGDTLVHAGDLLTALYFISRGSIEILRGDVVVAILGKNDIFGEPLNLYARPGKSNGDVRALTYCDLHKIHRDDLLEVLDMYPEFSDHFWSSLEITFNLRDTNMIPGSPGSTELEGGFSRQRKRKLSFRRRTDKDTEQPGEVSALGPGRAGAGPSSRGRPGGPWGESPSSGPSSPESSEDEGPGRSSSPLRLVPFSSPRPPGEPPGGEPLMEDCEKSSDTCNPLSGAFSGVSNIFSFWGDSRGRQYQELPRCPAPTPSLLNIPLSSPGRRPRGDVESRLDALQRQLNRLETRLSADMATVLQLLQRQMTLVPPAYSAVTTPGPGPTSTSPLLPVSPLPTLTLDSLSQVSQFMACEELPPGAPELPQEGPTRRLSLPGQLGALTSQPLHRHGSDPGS
Assay: NVS_IC_hKhERGCh: NovaScreen (NVS) Ion Channel Assay for human Potassium Channel ERG (KhERGCh) (AID 2283333)
Records with an inconclusive call do not appear. The source made the active and inactive calls. Rule for the calls: active = hit-call score of the fitted dose curve at least 0.9, where 1 is the maximum; inconclusive = response in the unintended direction; inactive = score below 0.9.
Classes to choose from: true = active, false = inactive

Examples from the recorded data:
CCOC(=O)COc1ccc2c(c1)CC(NCC(O)c1cccc(Cl)c1)CC2 (stereo not given); true
CCOC(=O)c1ccc(C2CCC(NC[C@H](O)COc3ccc(O)c(NS(C)(=O)=O)c3)CC2)cc1 (stereo not given in full); true
Nc1ccc(Nc2ccccc2)cc1; false
COc1cccc(-c2ccc(/C=C\CN3CCCCCC3)cc2Cl)c1; true

We now examine a further compound.
Data request: What did the test return for CC(C)CC(C)(O)C#CC(C)(O)CC(C)C (stereo not given) ?
Data returned: false

====

Read-out: Cytochrome P450 7A1 (Homo sapiens) (UniProt P22680)
Assay: LTEA_HepaRG_CYP7A1: Life Technologies and Expression Analysis (LTEA) Assay for Cytochrome P450 7A1 (CYP7A1) using HepaRG (AID 2283496)
Conditions: mRNA level, 48 h; actives raise or lower the signal
Activity calls are given as the source filed them. The calls were made as follows: active = hit-call score of the fitted dose curve at least 0.9, where 1 is the maximum; inactive = score below 0.9.
Response enum: active, inactive

Solved cases (2 shown):
CCn1nc(Cc2ccccc2)cc1C1CCN(C[C@H]2C[C@H](N(C)[C@@H](C(=O)O)C(C)C)C[C@@H]2c2cccc(F)c2)CC1; active
CCOc1cccc(-n2cc(C(=O)N3CCN(c4cc(C(=O)O)c5ccccc5c4)CC3)nc2-c2ccc(C)cc2)c1; active

Data request: GET /call?item= COC(=O)CC(=O)OC returns the recorded outcome of this test.
Data returned: active

Data request: Now the molecule CC(C)CCCCCCOC(=O)c1ccc(C(=O)OCCCCCCC(C)C)c(C(=O)OCCCCCCC(C)C)c1
Data returned: inactive

Data request: # iterate: CC(O)CN(CCN(CC(C)O)CC(C)O)CC(C)O (configuration not stated)
Data returned: inactive

Data request: Moving on to the next molecule: O=C1OC(=O)C2C3C=CC(C3)C12 (configuration not stated)
Data returned: inactive

Data request: CCOC(=O)COc1ccc2c(c1)CC(NCC(O)c1cccc(Cl)c1)CC2 (configuration not stated) ?
Data returned: inactive

Data request: And the next one, CC/C(=C\C(=N/O)C(N)=O)C(C)[N+](=O)[O-] (configuration not stated) ?
Data returned: inactive

Data request: # repeat for CCCCCCCCCCCCCCCO
Data returned: inactive

Data request: Repeat for the following molecule: CC(=O)c1ccc2c(c1)[C@H](NC(=O)c1ccc(F)cc1)[C@@H](O)C(C)(C)O2
Data returned: inactive

Data request: Another molecule to look at: Cn1c(=O)c2c(ncn2C)n(C)c1=O
Data returned: inactive

Data request: And what about the molecule CCOCCOCCOCCO ?
Data returned: inactive
